These measurements were taken from patent US20060199803A1.

molecular target: mTOR protein (Homo sapiens, UniProt P42345); construct: mTOR protein was isolated from HeLa cell cytoplasmic extract by immunoprecipitation; endogenous in cells; assay: mTOR enzyme activity assay (immunoprecipitated mTOR, recombinant PHAS-1 as substrate); details: mTOR isolated from HeLa cell cytoplasmic extract by immunoprecipitation; recombinant PHAS-1 substrate
Measured quantity: IC50

Look over these answered cases.
FC(F)(F)C1CCCN(c2nc(N3CCOCC3)c3cccnc3n2)C1 (stereo not drawn)    < 1500 nM
C[C@H]1CCCCN1c1nc(N2CCCOCC2)c2cccnc2n1    < 1500 nM
C[C@H]1COCCN1c1nc(N2CCOC(c3ccccc3)C2)nc2ncccc12 (stereo partly drawn)    < 1500 nM
C[C@H]1COCCN1c1nc(N2CCOC(CNC(=O)c3cccs3)C2)nc2ncccc12 (stereo partly drawn)    < 1500 nM
NC(=O)C1CCN(c2nc(N3CCOCC3)c3ccncc3n2)CC1    < 1500 nM

Readout IC50 for COC(=O)C(=O)NCC1CN(c2nc(N3CCOC[C@@H]3C)c3cccnc3n2)CCO1 (stereo partly drawn) , test system mTOR protein (Homo sapiens, UniProt P42345), was < 1500 nM

Readout IC50 for C[C@H]1COCCN1c1nc(N2CCOC(CN3C(=O)c4cccc(N)c4C3=O)C2)nc2ncccc12 (stereo partly drawn) , test system mTOR protein (Homo sapiens, UniProt P42345), was < 1500 nM

Readout IC50 for `C[C@@H]1CN(c2nc(N3CCOC[C@@H]3C)c3cccnc3n2)C[C@H](C)O1` , test system mTOR protein (Homo sapiens, UniProt P42345), was < 1500 nM

Readout IC50 for `C[C@@H]1CN(c2nc(N3CCOCC3)c3cccnc3n2)C[C@H](C)O1` , test system mTOR protein (Homo sapiens, UniProt P42345), was < 1500 nM

Readout IC50 for `c1cnc2nc(N3CCCCC3)nc(N3CCOCC3)c2c1` , test system mTOR protein (Homo sapiens, UniProt P42345), was < 1500 nM

Readout IC50 for CCC1CCCCN1c1nc(N2CCOCC2)c2cccnc2n1 (stereo not drawn) , test system mTOR protein (Homo sapiens, UniProt P42345), was < 1500 nM

Readout IC50 for OCCC1CCCCN1c1nc(N2CCOCC2)c2cccnc2n1 (stereo not drawn) , test system mTOR protein (Homo sapiens, UniProt P42345), was < 1500 nM

Readout IC50 for C[C@H]1COCCN1c1nc(N2CCOC(COc3nccc4ccccc34)C2)nc2ncccc12 (stereo partly drawn) , test system mTOR protein (Homo sapiens, UniProt P42345), was < 1500 nM

Readout IC50 for C[C@H]1COCCN1c1nc(N2CCOCC2c2ccccc2)nc2ncccc12 (stereo partly drawn) , test system mTOR protein (Homo sapiens, UniProt P42345), was < 1500 nM

Readout IC50 for C[C@H]1COCCN1c1nc(N2CCOC(Cn3c(=O)oc4ccccc43)C2)nc2ncccc12 (stereo partly drawn) , test system mTOR protein (Homo sapiens, UniProt P42345), was < 1500 nM
